The sequences listed here are annotated with their phosphorylation enrichment.
Target: Hck (UniProt P08631)
Sequence (P08631 whole entry, looked up): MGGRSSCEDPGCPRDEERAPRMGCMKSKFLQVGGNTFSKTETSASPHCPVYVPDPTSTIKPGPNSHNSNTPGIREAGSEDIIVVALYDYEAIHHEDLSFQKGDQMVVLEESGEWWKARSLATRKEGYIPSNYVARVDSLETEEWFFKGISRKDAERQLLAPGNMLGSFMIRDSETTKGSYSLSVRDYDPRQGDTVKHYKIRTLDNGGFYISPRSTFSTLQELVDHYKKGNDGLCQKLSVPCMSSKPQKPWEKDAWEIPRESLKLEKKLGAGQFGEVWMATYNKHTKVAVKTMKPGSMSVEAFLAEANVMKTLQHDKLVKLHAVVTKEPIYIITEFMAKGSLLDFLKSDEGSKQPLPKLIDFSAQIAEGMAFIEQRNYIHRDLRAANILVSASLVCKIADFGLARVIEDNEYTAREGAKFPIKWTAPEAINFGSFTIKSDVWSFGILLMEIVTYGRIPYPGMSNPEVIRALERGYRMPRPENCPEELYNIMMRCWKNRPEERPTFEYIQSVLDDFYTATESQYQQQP
Assay: phosphorylation enrichment, bacterial display (enrichment ratio); higher = better substrate or ligand; peptides without Tyr show the background;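 also: 11-residue human phosphosite peptides and single-mutation variants displayed on the E. coli surface, counted by deep sequencing, each peptide's frequency after selection divided by its frequency in the unselected input library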;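 also: frequency after pTyr selection over input frequency; kinase dosed for 20-30% of maximal phosphorylation in three min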
Answer as a number with no unit attached.

Use these answered entries as a reference point.
MACROMOLECULE_SEQUENCE	TARGET	EXPERIMENTAL_VALUE
CTTIHSNFMCN [TP53_Y234_Y234S_YF]	Hck (UniProt P08631)	0.43
LPKVSYVKAID [GLRA1_Y307]	Hck (UniProt P08631)	0.434
SYTDPYAQPSL [KMT2D_Y2378_P2382S]	Hck (UniProt P08631)	0.567

Query: Which phosphorylation enrichment is listed for SVVVPYAPPEV [TP53_Y220_E221A] ?
Reply: 0.43

Query: Follow-up entry: AGREIYESEKC [TTN_Y4424_D4427E]
Reply: 0.495

Query: Repeat with GAVGNYSRGLA [MGMT_Y158_G160R]
Reply: 0.395

Query: Further, for GLCSYYETSKM [MAGED2_Y449_R446C] ?
Reply: 0.926

Query: // repeat for RRAKGYPIFLF [ITGB2_Y125_D128Y_YF] and report
Reply: 0.548
